- Test system: K4 kissing-loop RNA reporter
- Experiment notes: apparent KD of K4 kissing-loop reporter; higher = weaker reporter binding
- Condition set: Eterna round: R107; input ligand: theophylline 20 uM
Attribute measured: apparent KD of K4 kissing-loop reporter (nM)
Give the value, in units of nM, as a plain number.

Lookup: Retrieve apparent KD of K4 kissing-loop reporter measured for GCACUCCAUCGGACGUAAGUGAUGUUUACCCGAGGACCGGUACGGCCGCCACUCGACCGUGCAUAACCAAAUCAAAUAGCUUCCG [theeternabot_exclusion_KL_Trp_A_31] and print it.
Found: 120

Lookup: Retrieve apparent KD of K4 kissing-loop reporter measured for UGGGCUGCCUGAGGAUAUAGAGACGAGUGAUGUUCGUGGAUAAGAGCCAGUGAUGUUGGGUUAUUUCUAGAAGGCGGGCGAACUU [Exclusion FMN B GF8] and print it.
Found: 129

Lookup: Retrieve apparent KD of K4 kissing-loop reporter measured for GCAGUGAUGUUGCAAAAUGUCUGUGGUAGUCGAGGACCGGUACGGCCGCCACUCGGUGAGAACCUGCUAAUACAUCGAUAAGUGA [IX] and print it.
Found: 810

Lookup: Retrieve apparent KD of K4 kissing-loop reporter measured for AUGACUCAAUAGUGAGUGAUGUUCACUGGACGAGGACCGGUACGGCCGCCACUCGAGAGUGGUGGACACUGUGUCACUGAGUCAU [Tryp A Ex t1] and print it.
Found: 194

Lookup: Retrieve apparent KD of K4 kissing-loop reporter measured for UUUAACGAGUGAUGUUCGAAAAGUAAUGGUGAGGAUAUCGUUUUUUCGAGAAGGCACCUCGAAGUGAUACGAAAGUAUCGCUUCG [FMN A 3] and print it.
Found: 314

Lookup: Retrieve apparent KD of K4 kissing-loop reporter measured for ACAAUGAUCAAAGGAUAUCGUAAGUUAUACAUCACGCGAUGAUUCAGAGGCGAGUGAUGUUUGUCUCGAGAAGGUUGGUACCGUC [theeternabot_exclusion_KL_FMN_B_37] and print it.
Found: 599

Lookup: Retrieve apparent KD of K4 kissing-loop reporter measured for AAAAUAAGCCAGUGAUGUUGGUAUGCAGAUACCAGCGACGAAAGUCGCCCUUGGCAGCUGUGGACGUACAAAAUAAGUACGUCCU and print it.
Found: 331

----------
Kindly state apparent KD of MS2 coat protein for each of the entries shown.
- Test system: MS2 coat protein
- Experiment notes: apparent KD of MS2 coat protein; designed switch direction (-1 OFF switch, 1 ON switch): -1; higher = weaker reporter binding
- Condition set: input ligand: none
Give the value, in units of nM, as a plain number.

Lookup: Retrieve apparent KD of MS2 coat protein measured for ACGCAUUGCCUUUGGUAGUGCGUAACAUGAGGAUCACCCAUGUAGGAUAUGGUAGGCUUUGCUUACCAGAAGGACAUUGUUGAU [Omei mod of JL ENG3 1.03] (Eterna round: R96, puzzle: Exclusion NG 3) and print it.
Found: 130

Lookup: Retrieve apparent KD of MS2 coat protein measured for GUAGAGUCAGGAUAUACGAGAUCGAAAGAUCUUUGAUCCUUACAUGAGGAUCACCCAUGUAGAAGGGACUCUAC [Omei mod 2 to Eli's favorate candidate (ch.parushev)] (Eterna round: R97, puzzle: Exclusion 2) and print it.
Found: 43.2

Lookup: Retrieve apparent KD of MS2 coat protein measured for UCACGGGACUGAGGAUAUACAUCAACAAUGGUUGUAGAAGGCAGAAGGUUGAAUCAUAUACUAAACAUGAGGAUCACCCAUGUU [JR_ExcNG1_Sub031] (Eterna round: R96, puzzle: Exclusion NG 1) and print it.
Found: 24.1

Lookup: Retrieve apparent KD of MS2 coat protein measured for UUUUUAUAUGAAGGAUAUACUUAACAUGAGGAUCACCCAUGUGGUGUUGUGAGUGAGUGAGUUUAGUAGAAGGUCAGUUCUUUU [JMF's solution 79] (Eterna round: R96, puzzle: Exclusion NG 2) and print it.
Found: 611

----------
- Test system: MS2 coat protein
- Experiment notes: apparent KD of MS2 coat protein; higher = weaker reporter binding
- Condition set: Eterna round: R107; input ligand: theophylline 20 uM
Everything with apparent KD of MS2 coat protein lower than 100 nM is not met; everything else, including exactly 100 nM, is met.

Lookup: Please tell me: is the sequence AGCCCGGGAGCGGCCGCCACUGGAGGCUGAGCGCGACAUGAGGAUCACCCAUGUGUGCCCGGCGUUAGGACCGGGCUCGCGUGGU [#1 Same State - Tryptophan B Attempt #23 (HarryS)] at or over 100 nM in terms of apparent KD of MS2 coat protein?
Found: not met

Lookup: Please tell me: is the sequence AGCUCGCAUCCUCAAGCGUCAAAGACGCGUCGAGGACCGGUACGGCCGCCACUCGACAAGAGGAUCACCCUUGUCUAAGCGAGCA [TrypAX 4 #SwitchBubble #AlternativeMS2 #MS2Late #CuTurnoff] at or over 100 nM in terms of apparent KD of MS2 coat protein?
Found: met

Lookup: Please tell me: is the sequence UGUAACAUGAGGAUCACCCAUGUAAGUGAUACCAGAUAAGUAGUAGUCCCUUGGCAGCAUAUUGGGCAAGUGUAUAGUCUAUACG [Same State - Theophylline A (Freestyle 6)] at or over 100 nM in terms of apparent KD of MS2 coat protein?
Found: not met

Lookup: Please tell me: is the sequence CAAUAUAUAUGAAGGAGCGACAUGAGGAUCACCCAUGUCUACCACGUCGAAAGACGCUCAUGUCAGGUAGGUCGCAUAUAUAUUG [Astros-Eli-mod4] at or over 100 nM in terms of apparent KD of MS2 coat protein?
Found: met

----------
- Tested on: K4 kissing-loop RNA reporter;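 also: bound reporter read as fluorescence of individual clusters on recovered sequencing chips by microscopy, with normalized cluster intensities fitted with a binding model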
- Experiment notes: apparent KD of K4 kissing-loop reporter; higher = weaker reporter binding
- Condition set: Eterna round: R107; input ligand: arginine 13.2 mM
Everything with apparent KD of K4 kissing-loop reporter lower than 200 nM is Condition not met; everything else, including exactly 200 nM, is Condition met.

Lookup: Please tell me: is the sequence ACGUCACGUAUACUCGUGGUUUCGAUCGAUACCAGUAGCGAGAGUUACCCUUGGCAGCGACAUGAGUGAUGUUCAUGUGCGAAGA [KL-XTheo-A3 #analogue] at or over 200 nM in terms of apparent KD of K4 kissing-loop reporter?
Found: Condition not met

Lookup: Please tell me: is the sequence AAGCAGUCACUCGCAGCCAUCGAAGAUGGUCGAGGACCGGUACGGCCGCCACUCGGAGUGAUGUUCCGAAGACUGCAAAAUAAAA at or over 200 nM in terms of apparent KD of K4 kissing-loop reporter?
Found: Condition met

Lookup: Please tell me: is the sequence AUUUGUUUAUGUGAUACCAGACUAAGCAGUGAUGUUGCUUUUAUUUUUGAAUUUUAAAUAGUCCCUUGGCAGCACUAUGUCUGUA [#05 K4 Theophylline B Same State] at or over 200 nM in terms of apparent KD of K4 kissing-loop reporter?
Found: Condition not met

Lookup: Please tell me: is the sequence UAUUAAUUGUCAGGAUAUCGUAAUCGAGUGAUGUUCGAAUAUCGACGAUAGUCGAUAUUAUUUAUACGAGAAGGGACAUUAUUUA [JR_SSFMNB_Sub004] at or over 200 nM in terms of apparent KD of K4 kissing-loop reporter?
Found: Condition met

Lookup: Please tell me: is the sequence UAUGAAGGUGGAGGAUAUUGAUUGAAUCUUGGUCUGGAGUGAUGUUCCGGGAAGCCUUGGAUUCAUCGAGAAGGCCAAGGAUAGU [Extra 1] at or over 200 nM in terms of apparent KD of K4 kissing-loop reporter?
Found: Condition met

Lookup: Please tell me: is the sequence GCCUACGAUGCAGGAUAUAGCUCGCGAGUGAUGUUCGCAGCUGUAUGGUAGUAAGCUUCCACGUGUCUAGAAGGGCAUCGUAGGC [#01 K4 FMN B Exclusion] at or over 200 nM in terms of apparent KD of K4 kissing-loop reporter?
Found: Condition not met

Lookup: Please tell me: is the sequence AACCUACGAUCACAAUAGUGAUUGUAGGACUAGGAUAUGCUGAAAAGCAGAAGGAGUGAUGUUCCGUCAUGAAUAACAUGACAAA [FmnAX 3 #OpenEnded #K4Late #CoaxialStacking] at or over 200 nM in terms of apparent KD of K4 kissing-loop reporter?
Found: Condition met

Lookup: Please tell me: is the sequence CUAUAAGUGCCGAGUGAUGUUCGGCCAAUACGAGGACCGGUACGGCCGCCACUCGGUCAGUGGGUGCCCACCGGGCAUGGCUGAC [Cecezaa] at or over 200 nM in terms of apparent KD of K4 kissing-loop reporter?
Found: Condition met

Lookup: Please tell me: is the sequence UACUAUAGUGAUGUUAUAGAUAAACCAGAUACCAGUGUAACAUAACACCCUUGGCAGCUGAUGAGGGAAGAUAUCAAAAGAUAUC [AstroSTH-A#9newdesignED4.70] at or over 200 nM in terms of apparent KD of K4 kissing-loop reporter?
Found: Condition met

Lookup: Please tell me: is the sequence UAAUAAAUUCCAGCGAUAUCGCUCUUCGAAGGAGCGGACGAAAGUCCAGGUAGGUCGCGGAGAGUGAUGUUCUUUGCGGCGCUGG [whbob_Ex_Arginine_A_2t133] at or over 200 nM in terms of apparent KD of K4 kissing-loop reporter?
Found: Condition not met

Lookup: Please tell me: is the sequence GGACACUAGGAAACUAGUGUCUCAACUGAAGGAGCGUGAAUAGUCACAGGUAGGUCGCAGUUUGUUAGUGAUGUUGACAUGAGUU [#16 K4 Arginine A Same State] at or over 200 nM in terms of apparent KD of K4 kissing-loop reporter?
Found: Condition met

Lookup: Please tell me: is the sequence UUUUUCGCGUUUGAUACCAGCAGAGUUGUUCUUGUCUGGAACAUGAGUGAUGUUCAUGUCUGCCCUUGGCAGCAAACGGGAGAAG [KL-XTheo-B12] at or over 200 nM in terms of apparent KD of K4 kissing-loop reporter?
Found: Condition not met

Lookup: Please tell me: is the sequence UUUAACGAGUGAUGUUCGAAAAGUAAUGGUGAGGAUAUCGUUUUUUCGAGAAGGCACCUCGAAGUGAUACGAAAGUAUCGCUUCG [FMN A 3] at or over 200 nM in terms of apparent KD of K4 kissing-loop reporter?
Found: Condition met

Recorded values, source the supplement of paper PMC9170038.
